system: Porphyromonas gingivalis; experiment: Growth inhibition of Porphyromonas gingivalis at 60 uM measured after 24 hrs
REPORTED_METRIC: growth inhibition (GI) (%)
I only need the number, in %, no unit after it.

Please review the entries below; each comes with its answer.
chemical_string=COc1ccc2cc(-c3cn(Cc4nc(-c5ccc(Br)cc5)c(-c5ccc(Br)cc5)o4)nn3)ccc2c1 result=-9.9
chemical_string=COc1ccc2cc(-c3cn(Cc4nc(-c5ccc(Cl)cc5)c(-c5ccc(Cl)cc5)o4)nn3)ccc2c1 result=0.3
chemical_string=COc1ccccc1-c1cn(Cc2nc(-c3ccc(Cl)cc3)c(-c3ccc(Cl)cc3)o2)nn1 result=-19.6

## Input Supply recorded growth inhibition (GI) for `CCCCCc1ccc(-c2cn(Cc3nc(-c4ccccc4)c(-c4ccccc4)o3)nn2)cc1` here.
## Output -14.5

## Input Supply recorded growth inhibition (GI) for `CC(C)CCNc1nc(NCCC(C)C)nc(-c2cn(Cc3nc(-c4ccccc4)c(-c4ccccc4)o3)nn2)n1` here.
## Output 72.8

## Input Supply recorded growth inhibition (GI) for `COc1ccc2cc(-c3cn(Cc4nc(-c5ccc(F)cc5)c(-c5ccc(F)cc5)o4)nn3)ccc2c1` here.
## Output -3.3

## Input Supply recorded growth inhibition (GI) for `COc1ccccc1-c1cn(Cc2nc(-c3ccc(Br)cc3)c(-c3ccc(Br)cc3)o2)nn1` here.
## Output -12.4
